Measurement protocol: qHTS assay to test for compound auto fluorescence at 460 nm (blue) in HEK293 cell free culture (AID 720681); note: % is set by controls: 0 for no effect and ±100 for the full control effect
Condition context: cell-free medium, autofluorescence 405/460 nm (blue); series mostly up to 91.3 µM
Activity calls are given as the source filed them. Calls come from the whole dose curve; as a rule, active = well fitted curve in the direction sought with a large enough effect in the repeat runs; inconclusive = weak or mixed curves; inactive = flat fitted curve, though single readings scatter.
Measured metric: fluorescence, % of fluorescent control

These recorded examples may help you get a feel for the data.
CC(C)[N+](C)(CCC(C(N)=O)(c1ccccc1)c1ccccc1)C(C)C | 0.0496% [at 18.6 µM] (inactive)
C/C(=N\NC(=O)Nc1cc(F)cc(F)c1)c1ncccc1C(=O)O | inactive
CC(C)(N)Cc1ccc(Cl)cc1 | inactive
CCCOc1nn(C(=O)NS(=O)(=O)c2ccccc2C(=O)OC)c(=O)n1C | inactive
C[C@@H](N)[C@@H](O)c1ccccc1 | -0.0641% [at 18.6 µM] (inactive)
CCN(CC)CCOC(=O)C(O)(c1ccccc1)c1ccccc1 | inactive

Challenge: Requested field: fluorescence, % of fluorescent control. Item: COc1cccc(C=O)c1
Response given: inactive

Challenge: Can you look up the measured fluorescence, % of fluorescent control of c1cncc([C@@H]2CCCCN2)c1 for me?
Response given: inactive

Challenge: Please report the recorded fluorescence, % of fluorescent control for CCOP(=S)(OCC)SCCl .
Response given: inactive

Challenge: Param item = CC(C)(C)C(=O)Cl ; retrieve measured fluorescence, % of fluorescent control.
Response given: inactive

Challenge: Return reported fluorescence, % of fluorescent control; argument: COc1ccc2c(C(=O)c3ccc(Cl)cc3)c(C)n(CC(=O)O)c2c1
Response given: inactive

Challenge: Field request: fluorescence, % of fluorescent control | item: ClCC1CO1 (stereo not drawn)
Response given: inactive

Challenge: GET /values?readout=fluorescence, % of fluorescent control&item= CCC1(c2cccc(O)c2)CCCCN(C)C1 (stereo not drawn)
Response given: 0.0294% [at 18.6 µM] (inactive)
